System: P. falciparum D-6 (drug-sensitive but melfloquine resistant D-6 clone)
Assay: In vitro drug combination sensitivity (Desjardins hypoxanthine incorporation), D-6 clone
Assay type: cell-based
Conditions: drug combined with compound of Example 1, positive = synergistic, negative = antagonism, 0 = additive
Description: Antimalarial activity in this system is assessed by inhibition of radiolabelled hypoxanthine incorporation into parasites by graded concentrations of drugs. The drugs tested and their solvents are listed below: In order to study drug combinations, drug solutions at starting concentrations were combined in various ratios and 1:5,1:2,2:1 and 5:1). […] Individual IC50 s were calculated using the "MINSQ" program from Micromath Scientific Software. […]
Field: I (interaction parameter). Provide a value for each of the molecules that follow.
One number for each entry.

Worked set:
[
  {
    "Molecule": "CCN(CC)CCCC(C)Nc1ccnc2cc(Cl)ccc12 (stereo not drawn)",
    "Measured Result": -1.40
  },
  {
    "Molecule": "CC1(C)N=C(N)N=C(N)N1c1ccc(Cl)cc1",
    "Measured Result": 1.66
  }
]

Next molecule, please.
Challenge: In one line, give reported I (interaction parameter) of the entry CN(C)C1C(=O)C(C(N)=O)=C(O)C2(O)C(=O)C3=C(O)c4c(O)cccc4C(C)(O)C3CC12 (stereo not drawn) .
Response given: 1.11
